System: human telomerase
assay.details: TRAP assay of telomerase activity in HME50-5 cell extracts preincubated with PNA or PS oligomer
Format: biochemical
condition.description: HME50-5 cell extract, 25° C., 30 min preincubation; read-out: IC50 (nM) Cell Extract 25° C.
Each item that follows carries a reported IC50.
observable: IC50

substance	obs.value
PNA (VIII): complementary PNA, sequence CCCTTCTCAGTTAGGGTTAG (all peptide nucleic acid (PNA))	200 nM
PNA (XV): non-complementary PNA, sequence TGTAAGGAACTAG (all peptide nucleic acid (PNA)) [reference compound]	> 33000 nM
PNA (X): complementary PNA, sequence GTTAGGGTTAGAC (antisense; all peptide nucleic acid (PNA))	10 nM
PNA (IX): complementary PNA, sequence TAGGGTTAGAC (all peptide nucleic acid (PNA))	10 nM
PS (V): non-complementary phosphorothioate oligonucleotide TGTAAGGAACTAG (all phosphorothioate, sugars by position and methylation of C not given here) [reference compound]	100 nM
PNA (XI): complementary PNA, sequence GGGTTAGACAA (all peptide nucleic acid (PNA))	10 nM

---

Each item that follows carries a reported IC50.
Test system: human telomerase
assay.details: TRAPeze telomerase assay, HME50-5 cell lysate preincubated with PNA (PNA scanning)
Type: biochemical
condition.description: 25° C., 30 min preincubation; read-out: IC50 (μM), Table 2
observable: IC50

substance	obs.value
PNA 4: PNA, sequence GGGTTAGACAA	0.01 µM
PNA 15: PNA, sequence GCCCTTCTCAG (all peptide nucleic acid (PNA))	0.5 µM

---

Test system: human telomerase
assay.details: TRAP assay of telomerase activity in HME50-5 cell extracts preincubated with PNA or PS oligomer
Assay type: biochemical
condition.description: HME50-5 cell extract, 37° C.; read-out: IC50 (nM) Cell Extract 37° C.
Could you mark each record Condition met if its IC50 falls strictly under 80 nM, and Condition not met if it equals or exceeds it?

substance	class.name
PNA (XIII): complementary PNA, sequence GTTAGGGTTAGACAA (all peptide nucleic acid (PNA))	Condition met
PNA (V): complementary PNA, sequence AGTTAGGGTTAG (all peptide nucleic acid (PNA))	Condition met
PNA (VIII): complementary PNA, sequence CCCTTCTCAGTTAGGGTTAG (all peptide nucleic acid (PNA))	Condition not met
PS (V): non-complementary phosphorothioate oligonucleotide TGTAAGGAACTAG (all phosphorothioate, sugars by position and methylation of C not given here) [reference compound]	Condition not met
PNA (VII): complementary PNA, sequence CTCAGTTAGGGTTAG (all peptide nucleic acid (PNA))	Condition met
PS (I): complementary phosphorothioate oligonucleotide 5'-GTTAGGGTTAG-3' (all phosphorothioate, sugars by position not given here) [reference compound]	Condition not met
PNA (XI): complementary PNA, sequence GGGTTAGACAA (all peptide nucleic acid (PNA))	Condition met
PNA (XIV): non-complementary PNA, sequence AGGATCTTCACCTAGATCCT (all peptide nucleic acid (PNA)) [reference compound]	Condition not met
PNA (XV): non-complementary PNA, sequence TGTAAGGAACTAG (all peptide nucleic acid (PNA)) [reference compound]	Condition not met
PNA (III): complementary PNA, sequence TTAGGGTTAG (all peptide nucleic acid (PNA))	Condition not met
PS (II): complementary phosphorothioate oligonucleotide CTCAGTTAGGGTTAG (all phosphorothioate, sugars by position and methylation of C not given here) [reference compound]	Condition not met
PNA (VI): complementary PNA, sequence CAGTTAGGGTTAG (all peptide nucleic acid (PNA))	Condition met
